Values compiled from patent EP4585599A1.

assay: cells; conditions: Homo sapiens, DLD-1, 240 h, read-out: Cell viability assay IC50 (nM), CTG assay, CellTiter Glo, read on Day 10; cell line not given
Quick reference for IC50 among some molecules
quantityName: IC50 (nM)

INSERT INTO results (molecule, units, val) VALUES
  ('COc1cnc(Cl)cc1-c1cc(C)ncc1C(=O)Nc1nc2ncc(-c3cnc4[nH]ccc4c3)cc2s1', 'nM', 261),
  ('COc1cnc(Cl)cc1-c1cc(C)ncc1C(=O)Nc1nc2ccc(-c3c(C)nnn3C)nc2s1', 'nM', 82.5),
  ('COc1cnc(Cl)cc1-c1cc(C)ncc1C(=O)Nc1nc2c(F)nc(N3CCC(O)CC3)cc2s1', 'nM', 24.2),
  ('COc1cnc(Cl)cc1-c1cc(C)ncc1C(=O)Nc1nc2cnc(-c3cncn3C)cc2s1', 'nM', 13.1),
  ('COc1cnc(Cl)cc1-c1cc(C)ncc1C(=O)Nc1nc2cnc(-c3ncco3)cc2s1', 'nM', 20),
  ('COc1cnc(C(F)F)cc1-c1cc(C)ncc1C(=O)Nc1nc2cnc(N3CCCCC3=O)nc2s1', 'nM', 224),
  ('COc1cnc(Cl)cc1-c1cc(C)ncc1C(=O)Nc1nc2ncc(N3CCCC(O)CC3)cc2s1 (centres unmarked)', 'nM', 681),
  ('COc1cnc(Cl)cc1-c1cc(C)ncc1C(=O)Nc1nc2c(F)cc(N3CCC(O)CC3)cc2s1', 'nM', 22.4);

* * *

assay: in vitro; conditions: mouse, microsomes, pH 7.4
Listed here: items and their measured half-life at 1 µM.
quantityName: half-life at 1 µM (h)

INSERT INTO assay_data (molecule, val) VALUES
  ('COc1cnc(Cl)cc1-c1cc(C)ncc1C(=O)Nc1nc2ncc(N3CCC(O)CC3)nc2s1', 8.88),
  ('COc1cnc(Cl)cc1-c1cc(C)ncc1C(=O)Nc1nc2cnc(-c3c(C)nnn3C)c(F)c2s1', 28.9),
  ('COc1cnc(Cl)cc1-c1cc(C)ncc1C(=O)Nc1nc2cnc(-c3c(C)cnn3C)cc2s1', 14.4),
  ('COc1cnc(Cl)cc1-c1cc(C)ncc1C(=O)Nc1nc2ccc(N3CCC(O)CC3)nc2s1', 7.9),
  ('COc1cnc(Cl)cc1-c1cc(C)ncc1C(=O)Nc1nc2cnc(C3=CCC(O)CC3)cc2s1 (stereo not shown)', 3.75),
  ('COc1cnc(Cl)cc1-c1cc(C)ncc1C(=O)Nc1nc2cnc(-c3c(C)nnn3C)cc2s1', 10.5),
  ('COc1cnc(C(F)F)cc1-c1cc(C)ncc1C(=O)Nc1nc2cnc(-c3c(C)noc3C)cc2s1', 14.4);

* * *

experiment: cells; settings: Homo sapiens, DLD-1, 240 h, read-out: Cell viability assay IC50 (nM), CTG assay, CellTiter Glo, read on Day 10; cell line not given
quantityName: log10 IC50 (log10 of the value in nM)

INSERT INTO results (molecule, quantityname, val) VALUES
  ('COc1cnc(Cl)cc1-c1cc(C)ncc1C(=O)Nc1nc2cnc(-c3c(C)cnn3C)cc2s1 [Example 87]', 'log10 IC50', 0.83),
  ('COc1cnc(Cl)cc1-c1cc(C)ncc1C(=O)Nc1nc2ncc(C3(O)CCC4(CC3)COC4)cc2s1 [Example 88]', 'log10 IC50', 1.72),
  ('COc1cnc(Cl)cc1-c1cc(C)ncc1C(=O)Nc1nc2ccc(C3=CCC(O)CC3)nc2[nH]1 (stereo not drawn) [Example 56]', 'log10 IC50', 3.98),
  ('[2H]C([2H])([2H])n1ncc(C)c1-c1cc2sc(NC(=O)c3cnc(C)cc3-c3cc(Cl)ncc3OC)nc2cn1 [Example 149]', 'log10 IC50', 0.55),
  ('COc1cc(P(C)(C)=O)ccc1-c1cc(C)ncc1C(=O)Nc1nc2cnc(-c3c(C)cnn3C)cc2s1 [Example 153]', 'log10 IC50', 2.74),
  ('COc1cnc(Cl)cc1-c1cc(C)ncc1C(=O)Nc1nc2c(C#N)cc(N3CCC(O)CC3)cc2s1 [Example 120]', 'log10 IC50', 1.15),
  ('COc1cnc(Cl)cc1-c1cc(C)ncc1C(=O)Nc1nc2ncc(N3CCC(NC(C)=O)CC3)cc2s1 [Example 57]', 'log10 IC50', 2.10),
  ('COc1cnc(Cl)cc1-c1cc(C)ncc1C(=O)Nc1nc2ncc(N3CCC(C(C)(C)O)CC3)nc2s1 [Example 134]', 'log10 IC50', 0.73),
  ('[2H]C([2H])([2H])c1cc(-c2cc(Cl)ncc2OC)c(C(=O)Nc2nc3cnc(C4=CCC(O)CC4)cc3s2)cn1 (stereo not drawn) [Example 110]', 'log10 IC50', 0.38),
  ('COc1cnc(Cl)cc1-c1cc(C)ncc1C(=O)Nc1nc2ncc(N3CC4CC(O)CC4C3)cc2s1 (stereo not drawn) [Example 61]', 'log10 IC50', 2.15),
  ('COc1cnc(Cl)cc1-c1cc(C)ncc1C(=O)Nc1nc2cc(C3=CCC(O)CC3)cnc2s1 (stereo not drawn) [Example 2]', 'log10 IC50', 3.50),
  ('COc1cnc(Cl)cc1-c1cc(C)ncc1C(=O)Nc1nc2ncc(N3CCN(S(C)(=O)=O)CC3)cc2s1 [Example 65]', 'log10 IC50', 1.63),
  ('COc1cnc(Cl)cc1-c1cc(C)ncc1C(=O)Nc1nc2cc(F)c(C3=CCC(O)CC3)cc2s1 (stereo not drawn) [Example 84]', 'log10 IC50', 0.38),
  ('COc1cnc(Cl)c(F)c1-c1cc(C)ncc1C(=O)Nc1nc2cnc(N3CCC(O)CC3)nc2s1 [Example 200]', 'log10 IC50', 0.85),
  ('COc1cnc(Cl)cc1-c1cc(C)ncc1C(=O)Nc1nc2ccc(-c3c(C)cnn3C)c(F)c2s1 [Example 151]', 'log10 IC50', 0.60);
